Please provide measured cytotoxicity at 10 µM for the entries that follow.
test: Toxicity liver stage against HepG2, at 10uM; type: cell-based; parameters: test concentration 10 uM, cell line HepG2-A16-CD81EGFP; conditions: human, HepG2-A16-CD81EGFP cells; read-out: INHIBITION
Numbers only, in %.

// worked examples, cytotoxicity at 10 µM included
{"COMPOUND": "Cc1oc(CNC(=O)Cc2ccccc2Cl)cc1C(=O)O", "cytotoxicity at 10 µM, %": 0.723}
{"COMPOUND": "CCOC(=O)c1sc2ccsc2c1CNS(C)(=O)=O", "cytotoxicity at 10 µM, %": -12}
{"COMPOUND": "CCN(CC1CCOC1)C(=O)c1cnc2onc(C)c2c1 (configuration not stated)", "cytotoxicity at 10 µM, %": -10.4}

Provide cytotoxicity at 10 µM values for the following items, in order.
1. Cc1ccc(C)c2c(C)c(C(=O)NCCCn3cnnc3)[nH]c12
2. Cc1ccc(NC(C)C(=O)N(C)Cc2cccc(F)c2)cc1C(N)=O (configuration not stated)
3. CCC12CN3CC(CC)(CN(C1)C3c1[nH]c(=O)[nH]c(=O)c1C)C2=O (configuration not stated)
4. CC(C)CNC(=O)C(C)N1CCN(C2CCN(C(C)C)CC2)CC1 (configuration not stated)
5. CNC(=O)N1C[C@@H]2C[C@H](C(=O)Nc3ccccc3)[C@H](C1)O2
6. Cc1nc(C)c(CC(=O)NCc2ccc(F)cc2F)s1
7. COCc1cncc2c1CCN(C(=O)c1ccsc1)C2
8. CCc1cc(N[C@H](C(N)=O)[C@@H](C)CC)n2nccc2n1

[6.28, 11.4, 12.5, -7.09, -2.24, -91.9, 2.43, 2.99]

Consider the compound `Cc1cnn(Cc2cccc(OCC(N)=O)c2)c1` and give its measured cytotoxicity at 10 µM.
-2.84

----------
experiment: Toxicity liver stage against HepG2, at 10uM; format: cell-based; set-up: test concentration 10 uM, cell line HepG2-A16-CD81EGFP; conditions: human, HepG2-A16-CD81EGFP cells; read-out: INHIBITION
Please provide measured cytotoxicity at 10 µM for the entries that follow.
Numbers only, in %.

// worked examples, cytotoxicity at 10 µM included
{"COMPOUND": "Cc1noc([C@H]2COC[C@H]3CN(C(=O)Cc4ccsc4)C[C@H]32)n1", "PROPERTY MEASURED": "cytotoxicity at 10 µM", "UNIT TAG": "%", "QUANTITATIVE RESULT": -3.26}
{"COMPOUND": "Cn1cc(CN2C[C@@H]3[C@@H](C2)OCC(=O)N3Cc2ccncc2)cn1", "PROPERTY MEASURED": "cytotoxicity at 10 µM", "UNIT TAG": "%", "QUANTITATIVE RESULT": -7.9}
{"COMPOUND": "CC(=O)N1CCC(N2CCOC[C@H]2c2nc(-c3ccc(Cl)s3)c[nH]2)CC1", "PROPERTY MEASURED": "cytotoxicity at 10 µM", "UNIT TAG": "%", "QUANTITATIVE RESULT": 2.29}
{"COMPOUND": "CCCN1CCN(C(=O)c2cc[nH]n2)[C@H]2CS(=O)(=O)C[C@H]21", "PROPERTY MEASURED": "cytotoxicity at 10 µM", "UNIT TAG": "%", "QUANTITATIVE RESULT": 2.29}

Provide cytotoxicity at 10 µM values for the following items, in order.
1. c1ccc(Cn2cccn2)c(CNCC2CNc3ccnn3C2)c1 (configuration not stated)
2. CN(C)c1ccc(CCCNC(=O)Nc2ccc(C#N)cc2)cc1

[-10.7, -1.14]

Provide cytotoxicity at 10 µM values for the following items, in order.
1. Cc1cnn(C2CCCN(C(=O)C3=NN(C)C(=O)CC3)C2)c1 (configuration not stated)
2. Cn1nc(Br)nc1Sc1ccccc1NC(=O)C1CC1

[-3.71, 3.62]

Provide cytotoxicity at 10 µM values for the following items, in order.
1. Cc1[nH]ncc1CCCNC(=O)N1CCC(CC(N)=O)CC1
2. CC1=N[C@@]2(CC[C@@H]3CN(Cc4ccccc4F)C[C@@H]32)C(=O)N1C
3. Cc1nc2c(c(=O)n1C)CCN(Cc1cc3cc[nH]c3cn1)CC2
4. Cc1ccc(CN2CCc3onc(C(=O)NC(C)C)c3C2)o1

1: 5.45; 2: 3.76; 3: -9.56; 4: 11.5

Provide cytotoxicity at 10 µM values for the following items, in order.
1. CN(C)CCN1CC(C(=O)N2CCC(c3nccn3C)CC2)CC1=O (configuration not stated)
2. CC1CCN(C)c2ccccc2N1C(=O)c1ccn(C)c(=O)c1 (configuration not stated)
3. CSCC(=O)N1CCc2c(cnc(C)c2-c2noc(-c3ccco3)n2)C1

-7.2
2.36
2.93

Provide cytotoxicity at 10 µM values for the following items, in order.
1. CCOc1ncccc1CNC(=O)N1CCCC1c1cccs1 (configuration not stated)
2. Cc1cccc(C(=O)Nc2ccc(OC3CCN(C)CC3)cc2)c1

[4.93, -26.1]

----------
experiment: Toxicity liver stage against HepG2, at 10uM; assay type: cell-based; set-up: test concentration 10 uM, cell line HepG2-A16-CD81EGFP; conditions: human, HepG2-A16-CD81EGFP cells; read-out: INHIBITION
Please provide measured cytotoxicity at 10 µM for the entries that follow.
One number for each entry, in %.

{"COMPOUND": "COCCCNC(=O)N1CCN(C(=O)c2nsc3ccc(C)cc23)CC1", "cytotoxicity at 10 µM, %": 12.3}

Provide cytotoxicity at 10 µM values for the following items, in order.
1. CN(C)C(=O)CN1CCN(c2ccnc3c(F)ccc(F)c23)CC1
2. CC(C(N)=O)N(C)CCCc1cc(-c2ccc(F)cc2)n(C)n1 (stereo not drawn)

1. 4.44
2. -4.87

----------
test: Toxicity liver stage against HepG2, at 10uM; type: cell-based; design: test concentration 10 uM, cell line HepG2-A16-CD81EGFP; conditions: human, HepG2-A16-CD81EGFP cells; read-out: INHIBITION
Please provide measured cytotoxicity at 10 µM for the entries that follow.
One number for each entry, in %.

{"COMPOUND": "Cc1ccc(CN2CC[C@H]3OCC[C@@]3(COCC(=O)N(C)C)C2)s1", "QUANTITATIVE RESULT": -97.8}

Provide cytotoxicity at 10 µM values for the following items, in order.
1. Cc1cnn(CC2CCCN2C(=O)c2c(C)noc2C(C)C)c1 (stereo unspecified)
2. Cc1cccnc1CNC[C@H]1Cn2cc(-c3ccccc3)nc2CO1

[-0.502, -2.56]

Provide cytotoxicity at 10 µM values for the following items, in order.
1. CNc1nc2c(c(C(=O)N3CCCC3)n1)CN(Cc1nccn1C)CC2
2. CCC(Nc1nc(C)nc2onc(C)c12)c1cccs1 (stereo unspecified)
3. CC(=O)c1ccc(N2CCN(C(=O)NCc3cc[nH]n3)CC2)cc1
4. CCN(C)C(=O)CCN(C)Cc1cnc(C)s1
5. CN1CCC(c2cccc(-c3cccc(C(=O)O)c3)n2)CC1
6. CS(=O)(=O)N1CCN(C(=O)CCC2CCCO2)CC1 (stereo unspecified)
7. Cc1ccc(OC2(C(=O)N(C)Cc3ccoc3)CCNCC2)cc1
8. Cc1nn(CCC#N)c(C)c1[C@@H]1C=C[C@@H](NCc2cccc(Cl)c2)C1

1: -8.74; 2: 52.4; 3: -2.17; 4: 4.04; 5: -6.55; 6: 0.815; 7: 9.41; 8: -1.45

----------
Please provide measured cytotoxicity at 10 µM for the entries that follow.
experiment: Toxicity liver stage against HepG2, at 10uM; type: cell-based; set-up: test concentration 10 uM, cell line HepG2-A16-CD81EGFP; settings: human, HepG2-A16-CD81EGFP cells; read-out: INHIBITION
One number for each entry, in %.

{"COMPOUND": "Cc1ccc(N2C[C@@H]3CN(C(=O)NC4CCCC4)C[C@]3(C(=O)O)C2)nn1", "UNIT TAG": "%", "cytotoxicity at 10 µM": 19.5}
{"COMPOUND": "Cc1cc(-c2c(C)c(-c3cnn(C)c3)nc(N)c2C#N)oc1C", "UNIT TAG": "%", "cytotoxicity at 10 µM": -93.5}
{"COMPOUND": "Cc1cccc(C2CC(=O)Nc3c2c(=O)[nH]n3C(C)C)c1 (centres undefined)", "UNIT TAG": "%", "cytotoxicity at 10 µM": -3.33}
{"COMPOUND": "Cc1nc(C)n(C2CCCN(C(=O)c3ccc(N(C)C)nn3)C2)n1 (centres undefined)", "UNIT TAG": "%", "cytotoxicity at 10 µM": 0.722}

Provide cytotoxicity at 10 µM values for the following items, in order.
1. O=C(Nc1ccc(-c2cnc(NCCO)nc2)cc1)[C@@H]1CCCCN1
2. CC(C)COC(C)C(=O)NCc1ccc(N(C)C)cc1 (centres undefined)
3. O=C1NCCO[C@H]2CN(C(=O)Cc3cccs3)CC[C@@H]12
4. C[C@@H](O)CNC(=O)c1nc(Cc2c(Cl)cccc2Cl)no1
5. CCN(CCO)C[C@@H]1CN(C(=O)c2sc3ccccc3c2C)C[C@@H]1CO

1: -5.08; 2: 2.53; 3: -98.8; 4: 0.483; 5: -10.6
